Collected set of pKi measured with Alpha-1A adrenergic receptor (Rattus norvegicus, UniProt P43140) across studies.
Molecular target: Alpha-1A adrenergic receptor (Rattus norvegicus, UniProt P43140)
Sequence (P43140 whole entry): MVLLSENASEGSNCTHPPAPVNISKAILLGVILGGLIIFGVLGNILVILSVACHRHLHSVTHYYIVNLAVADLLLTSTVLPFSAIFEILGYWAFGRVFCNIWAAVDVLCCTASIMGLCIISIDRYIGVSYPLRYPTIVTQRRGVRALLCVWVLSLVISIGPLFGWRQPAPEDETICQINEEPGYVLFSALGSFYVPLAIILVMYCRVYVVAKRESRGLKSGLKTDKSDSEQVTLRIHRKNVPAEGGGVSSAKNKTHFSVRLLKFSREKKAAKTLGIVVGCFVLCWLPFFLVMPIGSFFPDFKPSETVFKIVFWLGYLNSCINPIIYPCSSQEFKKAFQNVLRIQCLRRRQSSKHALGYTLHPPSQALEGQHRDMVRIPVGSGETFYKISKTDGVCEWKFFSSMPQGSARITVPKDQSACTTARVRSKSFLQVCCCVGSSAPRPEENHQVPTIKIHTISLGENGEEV
A value of pKi is the negative decimal logarithm of a concentration given in moles per litre.

O=C(NCCCCN1CCN(c2ccc(Cl)cc2Cl)CC1)c1cc2cc(Cl)ccc2[nH]1
5.09
COc1ccccc1N1CCN(CCCCN2CC3CCCN3C2)CC1 (stereo not given)
7.14

Give its pKi value. Item: "COc1cccc2c1CC[C@H]1CN(CCn3c(=O)[nH]c4c(C(C)C)c(OC)sc4c3=O)C[C@@H]21"
9.39

How about "COc1ccccc1N1CCN(CCCCN2CCn3c(cc4ccccc43)C2=O)CC1" ?
7.48

How about Cc1ccc(C(=O)NC2CCc3ccc(CCN4CCN(c5nsc6ccccc56)CC4)cc32)cc1 (stereo not given) ?
7.87

* * *

Collected set of Ki measured with Alpha-1A adrenergic receptor (Rattus norvegicus) across studies.

Study these solved cases before continuing.
COc1cccc2c1CC[C@H]1CN(CCn3c(=O)[nH]c4[nH]ccc4c3=O)C[C@@H]21
1.2 nM
FC(F)(F)c1cccc(N2CCN(CCCCN3CC4CCCCN4C3)CC2)c1 (centres undefined)
115 nM
O=C1C2CCCN2C(=O)N1CCCCN1CCN(c2cccc(C(F)(F)F)c2)CC1 (centres undefined)
64.9 nM

Give its Ki value. Item: CN(c1c(O)ccc2c1CCCC2C1=NCCN1)S(C)(=O)=O (centres undefined)
5500 nM

How about CCCC(=O)NC1CCc2ccc(CCN3CCN(c4nsc5ccccc45)CC3)cc21 (centres undefined) ?
3.96 nM

How about NC1CCc2ccc(CCN3CCN(c4nsc5ccccc45)CC3)cc21 (centres undefined) ?
2.72 nM

How about "COc1cc2c(cc1O)[C@@H]1Cc3c(Cl)cc(OC)c(O)c3CN1CC2" ?
1380 nM

How about "COC(=O)c1cc2[nH]c(=O)n(CCN3C[C@@H]4CCc5c(OC)cccc5[C@@H]4C3)c(=O)c2s1" ?
1.48 nM

* * *

Molecular target: Alpha-1A adrenergic receptor (Rattus norvegicus, UniProt P43140)
Sequence (P43140 whole entry): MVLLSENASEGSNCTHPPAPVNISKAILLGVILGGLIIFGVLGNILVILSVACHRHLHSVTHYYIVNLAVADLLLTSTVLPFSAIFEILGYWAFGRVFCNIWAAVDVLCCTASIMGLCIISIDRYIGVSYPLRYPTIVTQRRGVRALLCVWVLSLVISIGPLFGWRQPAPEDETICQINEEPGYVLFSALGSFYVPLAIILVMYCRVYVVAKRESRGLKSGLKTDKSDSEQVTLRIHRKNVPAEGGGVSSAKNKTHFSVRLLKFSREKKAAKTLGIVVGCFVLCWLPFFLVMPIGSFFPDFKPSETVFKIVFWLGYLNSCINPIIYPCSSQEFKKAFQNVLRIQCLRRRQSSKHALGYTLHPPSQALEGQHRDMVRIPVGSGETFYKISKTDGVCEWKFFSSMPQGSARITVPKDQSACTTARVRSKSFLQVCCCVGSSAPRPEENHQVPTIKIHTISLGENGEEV
Collected set of pKi measured with Alpha-1A adrenergic receptor (Rattus norvegicus, UniProt P43140) across studies.
A value of pKi is the negative decimal logarithm of a concentration given in moles per litre.

Study these solved cases before continuing.
Cn1cc(C2CCN(CCCN3CCCCC3)CC2)c2ccccc21
6.32
COC(=O)c1ccc2c(=O)n(CCN3C[C@@H]4CCc5c(OC)cccc5[C@@H]4C3)c(=O)[nH]c2c1
9.57
O=C(NC1CCc2cc(CCN3CCN(c4nsc5ccccc45)CC3)ccc21)c1cccnc1 (stereo unspecified)
7.76
COc1cccc2c1CC[C@H]1CN(CCn3c(=O)[nH]c4c(C)c(C)ccc4c3=O)C[C@@H]21
10.05
Cl.Cl.c1ccc2c(C3CCN(CCCN4CCCCC4)CC3)c[nH]c2c1
6.92

Could you now consider this next molecule?
Give its pKi value. Item: "COc1cccc2c1CC[C@H]1CN(CCn3c(=O)[nH]c4ccsc4c3=O)C[C@@H]21"
8.86
